tested on: SF-539; test: Cytotoxicity against human SF539 cells up to 10 uM after 48 to 72 hrs by alamar blue assay; assay type: cell-based
quantity-kind: Activity

* CS(=O)(=O)N1CCC(n2nc(Cc3cccc4ccccc34)c3c(N)ncnc32)CC1 | Non-toxic
* CC(C)(C)n1nc(-c2cccc3ccccc23)c2c(N)ncnc21 | Non-toxic
* CC(C)c1cccc(-c2nn(C(C)C)c3ncnc(N)c23)c1 | Non-toxic
* CC(C)(C)n1nc(-c2ccc3ccccc3c2)c2c(N)ncnc21 | Non-toxic
